biological target: Fibroblast growth factor 10 (Homo sapiens); assay: FGF10 binders on small-molecule microarrays, primary screen, biochemical, small-molecule microarray, 635 nm fluorescence (AID 1102); details: FGF10 binding, fluorescence 635 nm, higher = more signal
composite z-score vs 0.9: at or above is True, below is False.

Does C=C(CCCC)/C(=C/C[C@H](OC(C)=O)c1ccc(CO)o1)c1cnc2ccccc2c1 have a reported composite z-score of at least 0.9? True

Does [N-]=[N+]=NCc1ccccc1C[C@]1(C(=O)NCC(O)CO)N=C(c2ccc(OCCCO)cc2)O[C@H]1c1ccccc1N=[N+]=[N-] (some centres not stated) have a reported composite z-score of at least 0.9? False

Does CC(=O)C1=CCC(c2ccccc2)N(S(=O)(=O)c2ccc(C)cc2)C1 (configuration not stated) have a reported composite z-score of at least 0.9? False

Does COc1ccc([Si](C)(C)[C@H]2[C@H](CC(=O)N(CCO)Cc3ccccc3)O[C@@]3(C(=O)N(Cc4cccc(N5CCC5=O)c4)c4ccccc43)[C@@H]2C)cc1 have a reported composite z-score of at least 0.9? False

Does CN(C)C(=O)[C@]1(CCC(=O)OC(C)(C)C)N=C(c2ccc(OCCCO)cc2)O[C@@H]1c1ccccc1N=[N+]=[N-] have a reported composite z-score of at least 0.9? True

Does COc1ccc(C(=O)Nc2cccc(CN3C(=O)[C@]4(O[C@H](CC(=O)N5CCC[C@H]5CO)[C@@H]([Si](C)(C)c5ccc(OC)cc5)[C@@H]4C)c4ccccc43)c2)cc1 have a reported composite z-score of at least 0.9? False

Does O=C(CS)NCCCCCCNC(=O)[C@@H]1C[C@@H]2C(=O)N3CCC[C@H]3C(=O)N2[C@@H]1c1ccc(O)cc1 have a reported composite z-score of at least 0.9? False

Does O=C1OCCC=C[C@H]2OC34C=CCN(Cc5ccccc5)C(=O)[C@H]3N(CCCO)C(=O)[C@@H]4C12 (some centres not stated) have a reported composite z-score of at least 0.9? False

Does O=C/C=C/c1ccc(Cl)cc1 have a reported composite z-score of at least 0.9? False

Does CCCC[C@H]1OB(O)C[C@H]2C1=C(C)C[C@H]1C(=O)N(Cc3ccccc3)C(=O)[C@H]12 have a reported composite z-score of at least 0.9? True

Does C[C@]1(C(=O)NCc2ccccc2)c2ccccc2C(=O)N(Cc2cc(F)cc(C(F)(F)F)c2)[C@H]1c1ccc(CO)cc1 have a reported composite z-score of at least 0.9? False

Does COC(=O)[C@@]1(Cc2ccccc2)[C@H]2c3cc(C(=O)N(C)C)n(Cc4c(-c5ccccc5)noc4C)c3C[C@H]2CN1C(=O)c1ccccc1 have a reported composite z-score of at least 0.9? False

Does Cc1ccc(F)cc1S(=O)(=O)N[C@@H]1CCN(Cc2ccc(-c3ccccc3)cc2)C1 have a reported composite z-score of at least 0.9? True

Does CCOC(=O)C1=C[C@@H](CC)N(S(=O)(=O)c2ccc(C)cc2)[C@H]1c1ccccc1 have a reported composite z-score of at least 0.9? False

Does O=C1N(CCS(=O)(=O)c2ccccc2)c2ccccc2C[C@@]12COC(c1ccc(OCCCO)cc1)=N2 have a reported composite z-score of at least 0.9? False

Does COc1cc2c(cc1O)C(C)N(Cc1cccc(OC(F)(F)F)c1)CC2 (configuration not stated) have a reported composite z-score of at least 0.9? True

Does C=CCN1C(=O)[C@]2(O[C@H](CCO)[C@@H]([Si](C)(C)c3ccc(OC)cc3)[C@@H]2C)c2cc(NC(=O)[C@H](C)O)ccc21 have a reported composite z-score of at least 0.9? True

The measurements presented in this section are drawn from PubChem BioAssay.
